biological target: T1, CHMP2B 1-199 truncation (human, UniProt Q9UQN3 1-199); assay: fluorescence polarization, stapled peptide against truncated CHMP2B (1-199)
T1 construct: Tags and purification of the truncated protein are not described
T1 sequence (Q9UQN3 1-199 limits assumed): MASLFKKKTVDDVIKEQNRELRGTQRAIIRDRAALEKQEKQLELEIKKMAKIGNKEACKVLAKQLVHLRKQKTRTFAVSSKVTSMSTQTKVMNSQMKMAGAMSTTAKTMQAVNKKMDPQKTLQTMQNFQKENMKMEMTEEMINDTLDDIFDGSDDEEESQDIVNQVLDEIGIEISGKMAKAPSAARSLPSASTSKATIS
Bridge positions count the residues as written; N and C are the ends. Ends that are not written are not given here. * marks the point of attachment. FITC = O=C1OC2(c3ccc(O)cc3Oc3cc(O)ccc32)c2ccc(NC(=S)*)cc21
metric-name: Kd

• {FITC}-DEEICRQLDALC (linker 5-12 via hexafluorobenzene (inferred), also called optimized macrocycle) [Stapled Pdpep1.4 variant DEEICRQLDALC] = 60 nM
